tested on: wheat germ agglutinin (Triticum aestivum), Alexa647-labelled; test: Alexa647-WGA lectin binding to printed small molecules – biochemical, small-molecule microarray, 635/667 nm fluorescence, artefact control for SMM control-protein annotation, profiling panel (AID 1140); conditions: WGA-A647 binding, 635 nm fluorescence, higher = more signal;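 note: score merges 667 nm feature emission with signal to noise over triplicate slides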
Criterion: composite z-score meeting or surpassing 0.3. Met: label 1. Not met: label 0.

| molecule | classification |
| --- | --- |
| COCCCNC(=O)[C@@]1(Cc2ccccc2I)c2ccccc2C(=O)N(Cc2ccccc2)[C@H]1c1ccc(CO)cc1 | label 0 |
| CN1C(=O)C2C(C1=O)C1C=C(c3ccc(CO)cc3)C2C(C2CC2)N1Cc1cc2c(cc1Br)OCO2 (stereo not drawn) | label 1 |
| O=C(CS)NCCCCCCNC(=O)[C@H]1C[C@H]2C(=O)N3CCC[C@H]3C(=O)N2[C@H]1c1ccc(O)cc1 | label 1 |
| C[N+](C)(C)CCCCNC(=O)[C@H]1C[C@H]2C(=O)N3CCC[C@H]3C(=O)N2[C@H]1c1ccc(O)cc1 | label 0 |
| COc1ccc(C(=O)Nc2cccc(CN3C(=O)[C@@]4(O[C@@H](CCn5cc([C@H](O)c6ccccc6)nn5)[C@H]([Si](C)(C)c5ccc(OC)cc5)[C@H]4C)c4ccccc43)c2)cc1 | label 1 |
| COc1ccccc1CN1C(=O)c2ccccc2[C@](Cc2ccccc2I)(C(=O)NC2CC2)[C@@H]1c1ccc(CO)cc1 | label 1 |
| CN(C)CCCC[C@@H]1NC(=O)[C@H]2C[C@@H](C(=O)NCCCCCNC(=O)CS)[C@@H](c3ccc(O)cc3)N2C1=O | label 0 |

IN: Has `C=CCN1C(=O)[C@]2(COC(c3ccc(OCCCO)cc3)=N2)Cc2ccccc21` a recorded composite z-score greater than or equal to 0.3?
OUT: label 0
